System: Herpes simplex type 2 (HSV-2) strain MS
experiment summary: CPE-inhibition assay, HSV-2 strain MS in Vero cells
condition parameters: HSV-2 (MS), Vero; >1.0 definite, 0.5-0.9 marginal to moderate, <0.5 no significant activity
Where a name gives a salt, the structure may show the parent alone.
readout: VR (Virus Rating)
Give your answer as a number; write no unit.

## Input So what's the measured VR (Virus Rating) for this one? OCC1CC(n2cc(Br)c3c(Cl)ncnc32)C1CO (stereo not shown) [Example 67C]
## Output 0.9

## Input So what's the measured VR (Virus Rating) for this one? Nc1nc2c(nc(Br)n2C2CC(CO)C2CO)c(=O)[nH]1 (stereo not shown) [Example 23]
## Output 0.7

## Input So what's the measured VR (Virus Rating) for this one? Nc1nc(N)c2ncn(C3CC(CO)C3CO)c2n1 (stereo not shown) [Example 6]
## Output 1.6

## Input So what's the measured VR (Virus Rating) for this one? OCC1CC(n2cnc3c(Cl)ncnc32)C1 (stereo not shown) [Example 8E]
## Output 1.35

## Input So what's the measured VR (Virus Rating) for this one? NCC1CC(n2cnc3c(Cl)ncnc32)C1 (stereo not shown) [Example 21, hydrochloride]
## Output 1.2

## Input So what's the measured VR (Virus Rating) for this one? CC(=O)OCC1CC(n2cnc3c(=O)[nH]c(N)nc32)C1COC(C)=O (stereo not shown) [Example 20]
## Output 1.9

## Input So what's the measured VR (Virus Rating) for this one? Nc1ccn(C2CC(CO)C2CO)c(=O)n1 (stereo not shown) [Example 3]
## Output 2.0

Values were extracted from patent US5153352A.
